- protocol-notes: In vitro inhibitory concentration required to inhibit LPS-induced nitric oxide production in J774A.1 cells
- Format: functional, cell-based
- measurement-conditions: Mus musculus, J774.A1
Define the label as class 1 when IC50 is strictly less than 4 µM and as class 0 in all remaining cases.

{"smiles": "CCCCCCCCCC(=O)NCCCNCCCNCCCCNCCCN", "assigned-label": "class 0"}
{"smiles": "CC(=O)NCCCNCCCNCCCCNCCCN", "assigned-label": "class 0"}
{"smiles": "CCCCCCCCCCCCCCC(=O)NCCCNCCCNCCCCNCCCN", "assigned-label": "class 1"}
{"smiles": "CCCCCCCCC(=O)NCCCNCCCNCCCCNCCCN", "assigned-label": "class 0"}
{"smiles": "CCCCCCCCCCCCCCCCCCC(=O)NCCCNCCCNCCCCNCCCN", "assigned-label": "class 0"}
{"smiles": "CCCCCCCCCCCCCCC(=O)NCCCNCCCNCCCCNCCCNCCCNC(=O)CCCCCCCCCCCCCC", "assigned-label": "class 0"}
{"smiles": "CCCCCCCCC(=O)NCCCNCCCNCCCCNCCCNCCCNC(=O)CCCCCCCC", "assigned-label": "class 1"}
{"smiles": "CCCCCCCCCCCC(=O)NCCCNCCCNCCCCNCCCNCCCNC(=O)CCCCCCCCCCC", "assigned-label": "class 1"}
{"smiles": "CCCCCCCCCCCCCCCCC(=O)NCCCNCCCNCCCCNCCCNCCCNC(=O)CCCCCCCCCCCCCCCC", "assigned-label": "class 0"}
{"smiles": "CCCCCCCCCCCCCCCCC(=O)NCCCNCCCNCCCCNCCCN", "assigned-label": "class 0"}
{"smiles": "CCCCCCCCCC(=O)NCCCNCCCNCCCCNCCCNCCCNC(=O)CCCCCCCCC", "assigned-label": "class 1"}
{"smiles": "CCCCCCCCCCCCCCCCCCC(=O)NCCCNCCCNCCCCNCCCNCCCNC(=O)CCCCCCCCCCCCCCCCCC", "assigned-label": "class 0"}

----------
- Test system: Lipopolysaccharide (LPS)
- protocol-notes: Effective dose required for binding to lipopolysaccharide using Fluorescence Displacement Assay
Catalogue of molecules with associated ED50
readout-type: ED50 (nM)

{"smiles": "CCCCCCCCCC(=O)NCCCNCCCNCCCCNCCCN", "reading": 1080}
{"smiles": "CCCCCCCCCCCCCCCCC(=O)NCCCNCCCNCCCCNCCCN", "reading": 1370}
{"smiles": "CCCCCCCCCCCCCCCCC(=O)NCCCNCCCNCCCCNCCCNCCCNC(=O)CCCCCCCCCCCCCCCC", "reading": 52500}
{"smiles": "CC(=O)NCCCNCCCNCCCCNCCCN", "reading": 107000}
{"smiles": "CCCCCCCCC(=O)NCCCNCCCNCCCCNCCCN", "reading": 920}
{"smiles": "CCCCCCCCC(=O)NCCCNCCCNCCCCNCCCNCCCNC(=O)CCCCCCCC", "reading": 330}
{"smiles": "CCCCCCCCCCCCCCCCCCC(=O)NCCCNCCCNCCCCNCCCNCCCNC(=O)CCCCCCCCCCCCCCCCCC", "reading": 66700}
{"smiles": "CCCCCCCCCC(=O)NCCCNCCCNCCCCNCCCNCCCNC(=O)CCCCCCCCC", "reading": 760}
{"smiles": "CCCCCCCCCCCCCCCCCCC(=O)NCCCNCCCNCCCCNCCCN", "reading": 2440}
{"smiles": "CCCCCCCCCCCCCCC(=O)NCCCNCCCNCCCCNCCCNCCCNC(=O)CCCCCCCCCCCCCC", "reading": 8670}
{"smiles": "CCCCCCCCCCCCCCC(=O)NCCCNCCCNCCCCNCCCN", "reading": 1350}
{"smiles": "CCCCCCCCCCCC(=O)NCCCNCCCNCCCCNCCCNCCCNC(=O)CCCCCCCCCCC", "reading": 6870}
